Target: cereblon (NanoLuc-CRBN) (Homo sapiens, UniProt Q96SW2)
Construct: host or cells: HEK293T
Sequence (Q96SW2 whole entry): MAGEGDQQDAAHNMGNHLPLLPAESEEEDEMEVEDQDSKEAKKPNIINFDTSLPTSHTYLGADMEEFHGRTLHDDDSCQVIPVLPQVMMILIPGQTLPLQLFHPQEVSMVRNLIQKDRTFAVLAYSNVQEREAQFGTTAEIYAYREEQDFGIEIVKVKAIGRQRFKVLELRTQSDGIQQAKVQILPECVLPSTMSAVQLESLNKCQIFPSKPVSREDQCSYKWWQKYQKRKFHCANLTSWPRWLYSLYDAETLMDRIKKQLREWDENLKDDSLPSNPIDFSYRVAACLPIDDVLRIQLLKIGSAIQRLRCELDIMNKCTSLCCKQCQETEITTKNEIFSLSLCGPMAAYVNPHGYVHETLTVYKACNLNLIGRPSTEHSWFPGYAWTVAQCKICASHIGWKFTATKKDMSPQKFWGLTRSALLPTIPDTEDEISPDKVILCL
Assay: NanoBRET CRBN Cellular Target Engagement Assay
Assay type: binding
Conditions: compound tested at 10 μM; HEK293T cells transfected with NanoLuc-CRBN; 2 hr incubation; read-out: % tracer removed From CBLN
metric: inhibition at 10 µM (%)

COc1ccc(CNc2cccc3nc(C)n(C4CCC(=O)NC4=O)c(=O)c23)cc1 (stereo not shown) [Example 1]; 52.7
Cc1ccc(CNc2cccc3nc(C)n(C4CCC(=O)NC4=O)c(=O)c23)cc1 (stereo not shown) [Example 8]; 52.3
Cc1nc2cccc(NCc3ccc(CN4CCN(c5ccc(C#N)cc5F)CC4)cc3)c2c(=O)n1C1CCC(=O)NC1=O (stereo not shown) [Example 34]; 72.6
COc1ccc(CNc2cccc3nc(C)n(C4CCC(=O)NC4=O)c(=O)c23)cc1OC (stereo not shown) [Example 12]; 100

====

Biological target: cereblon (NanoLuc-CRBN) (Homo sapiens)
Construct: host or cells: HEK293T
Assay: NanoBRET CRBN Cellular Target Engagement Assay
Assay type: binding
Details: compound tested at 10 μM; HEK293T cells transfected with NanoLuc-CRBN; 2 hr incubation; read-out: % tracer removed From CBLN
metric: inhibition at 10 µM

Cc1ccccc1CNc1cccc2nc(C)n(C3CCC(=O)NC3=O)c(=O)c12 (stereo not drawn); 69.8%
Cc1nc2cccc(NCc3ccccc3F)c2c(=O)n1C1CCC(=O)NC1=O (stereo not drawn); 73.4%
Cc1nc2cccc(NCc3ccc(C#N)cc3)c2c(=O)n1C1CCC(=O)NC1=O (stereo not drawn); 88.5%

Reference source for all entries: patent US11807620B2
